Tested on: Peripheral blood mononuclear cells (PBMC)
testMethodNotes: Cytokine Induction in Human Cells (in vitro human blood cell system, IFN and TNF secreted into culture media)
Assay type: cell-based
Design: key: *: no induction was seen at any of the tested concentrations
conditionLabel: lowest concentration found to induce tumor necrosis factor (α), 18 to 24 hours, ELISA or IGEN assay, tested 30-0.014 μM
valueType: Lowest Effective Concentration (μM) Tumor Necrosis Factor

- molecule: "CCCCCCCCc1nc2c(N)nc3ccccc3c2n1CCOCCCc1ccccc1 [Example 117]"
  observedValue: "*"
- molecule: "CCC(COc1ccccc1)n1cnc2c(N)nc3ccccc3c21 (stereo not drawn) [Example 106]"
  observedValue: "*"
- molecule: "CC(C)C(COCc1cccc(Cl)c1)n1cnc2c(N)nc3ccccc3c21 (stereo not drawn) [Example 61]"
  observedValue: "*"
- molecule: "Cc1ccc(COC(C)Cn2cnc3c(N)nc4ccccc4c32)cc1 (stereo not drawn) [Example 50]"
  observedValue: "*"
- molecule: "COc1ccc(OC(C)Cn2cnc3c(N)nc4ccccc4c32)cc1 (stereo not drawn) [Example 99]"
  observedValue: "*"
- molecule: "CCCCCCCCc1nc2c(N)nc3ccccc3c2n1CCOCC#Cc1ccccc1 [Example 116]"
  observedValue: "*"
- molecule: "CC(Cn1cnc2c(N)nc3ccccc3c21)Oc1ccc(-n2ccnc2)cc1 (stereo not drawn) [Example 98]"
  observedValue: "*"
- molecule: "CC(C)C(COCc1cccc(C(F)(F)F)c1)n1cnc2c(N)nc3ccccc3c21 (stereo not drawn) [Example 63]"
  observedValue: "*"
- molecule: "Nc1nc2ccccc2c2c1ncn2CC(OCCCCOc1ccccc1)c1ccccc1 (stereo not drawn) [Example 79]"
  observedValue: "*"

###

As shown below, each of these compounds has a reported minimal effective concentration value.
System: Peripheral blood mononuclear cells (PBMC)
testMethodNotes: Cytokine Induction in Human Cells (in vitro human blood cell system, IFN and TNF secreted into culture media)
Format: cell-based
conditionLabel: Homo sapiens, PBMC, lowest concentration found to induce tumor necrosis factor (α), 18 to 24 hours, ELISA or IGEN assay, tested 30-0.014 μM, read-out: Lowest Effective Concentration (μM) Tumor Necrosis Factor
valueType: minimal effective concentration (µM)

- compound: "CCCCc1nc2c(N)nc3c(c2n1CCOCc1ccc(C#N)cc1)CCCC3"
  valueType: "minimal effective concentration"
  observedValue: 10
- compound: "CC[C@H](COCCCc1ccccc1)n1cnc2c(N)nc3ccccc3c21"
  valueType: "minimal effective concentration"
  observedValue: 0.37
- compound: "Nc1nc2ccccc2c2c1ncn2CCOCC#Cc1ccccc1C(F)(F)F"
  valueType: "minimal effective concentration"
  observedValue: 10
- compound: "Cc1nc2c(N)nc3ccccc3c2n1CCCCOCC#Cc1ccccc1"
  valueType: "minimal effective concentration"
  observedValue: 0.37
- compound: "CC(C)C(COc1ccccc1[N+](=O)[O-])n1cnc2c(N)nc3ccccc3c21 (centres unmarked)"
  valueType: "minimal effective concentration"
  observedValue: 30

###

Tested on: Peripheral blood mononuclear cells (PBMC)
testMethodNotes: Cytokine Induction in Human Cells (in vitro human blood cell system, IFN and TNF secreted into culture media)
Type: cell-based
Set-up: key: *: no induction was seen at any of the tested concentrations
conditionLabel: lowest concentration found to induce tumor necrosis factor (α), 18 to 24 hours, ELISA or IGEN assay, tested 30-0.014 μM
Counter-ions that a name gives are not always drawn.
valueType: Lowest Effective Concentration (μM) Tumor Necrosis Factor

- molecule: "CC(Cn1cnc2c(N)nc3ccccc3c21)OCc1ccc(C(F)(F)F)cc1 (stereo not drawn) [Example 68]"
  observedValue: "*"
- molecule: "Nc1nc2ccccc2c2c1ncn2CCOCCCc1ccc(-n2cccc2)cc1 [Example 11, trifluoroacetate]"
  observedValue: "*"
- molecule: "Nc1nc2ccccc2c2c1ncn2COCCOc1ccc([N+](=O)[O-])cc1 [Example 83]"
  observedValue: "*"
- molecule: "CCC(COCc1cccc(OC(F)(F)F)c1)n1cnc2c(N)nc3ccccc3c21 (stereo not drawn) [Example 45]"
  observedValue: "*"
- molecule: "CCCCCCCCc1nc2c(N)nc3ccccc3c2n1CCOCc1ccccc1 [Example 128]"
  observedValue: "*"
- molecule: "CCCCc1nc2c(N)nc3c(c2n1CCOCc1ccc(C(C)(C)C)cc1)CCCC3 [Example 95]"
  observedValue: "*"
- molecule: "CCC(COCc1ccc(OC(F)(F)F)cc1)n1cnc2c(N)nc3ccccc3c21 (stereo not drawn) [Example 48]"
  observedValue: "*"
- molecule: "CC(Cn1cnc2c(N)nc3ccccc3c21)OCc1cccc2ccccc12 (stereo not drawn) [Example 69]"
  observedValue: "*"
- molecule: "Cc1ccc(COCCOCn2cnc3c(N)nc4ccccc4c32)cc1 [Example 85]"
  observedValue: "*"

###

System: Peripheral blood mononuclear cells (PBMC)
testMethodNotes: Cytokine Induction in Human Cells (in vitro human blood cell system, IFN and TNF secreted into culture media)
Assay type: cell-based
conditionLabel: Homo sapiens, PBMC, lowest concentration found to induce tumor necrosis factor (α), 18 to 24 hours, ELISA or IGEN assay, tested 30-0.014 μM, read-out: Lowest Effective Concentration (μM) Tumor Necrosis Factor
Where a name gives a salt, the structure may show the parent alone.
As shown below, each of these molecules has a reported minimal effective concentration value.

- molecule: "CCC(COc1ccc(-n2ccnc2)cc1)n1cnc2c(N)nc3ccccc3c21 (stereo not shown) [Example 101]"
  measurementUnit: "µM"
  minimal effective concentration: 10
- molecule: "CCCCc1nc2c(N)nc3c(c2n1CCOCc1cccc(C(F)(F)F)c1)CCCC3 [Example 92]"
  measurementUnit: "µM"
  minimal effective concentration: 3.33
- molecule: "CCCCc1nc2c(N)nc3ccccc3c2n1CCOCC#Cc1ccccc1 [Example 123]"
  measurementUnit: "µM"
  minimal effective concentration: 10
- molecule: "COc1ccc(CCCOCCn2cnc3c(N)nc4ccccc4c32)cc1 [Example 5]"
  measurementUnit: "µM"
  minimal effective concentration: 1.11
- molecule: "COCCc1nc2c(N)nc3ccccc3c2n1CCOc1ccccc1 [Example 129]"
  measurementUnit: "µM"
  minimal effective concentration: 0.04
- molecule: "CCCCc1nc2c(N)nc3c(c2n1CCOCc1cccc(Cl)c1)CCCC3 [Example 89]"
  measurementUnit: "µM"
  minimal effective concentration: 10
- molecule: "CCCCc1nc2c(N)nc3c(c2n1CCOCc1ccc(C(F)(F)F)cc1)CCCC3 [Example 91]"
  measurementUnit: "µM"
  minimal effective concentration: 10
- molecule: "Cc1nc2c(N)nc3ccccc3c2n1CCCCOCCCc1ccccc1 [Example 150]"
  measurementUnit: "µM"
  minimal effective concentration: 1.11
- molecule: "Cc1nc2c(N)nc3ccccc3c2n1CCCOCCCc1ccccc1 [Example 148]"
  measurementUnit: "µM"
  minimal effective concentration: 1.11
- molecule: "CCCCc1nc2c(N)nc3ccccc3c2n1CCOCCCc1ccccc1 [Example 124]"
  measurementUnit: "µM"
  minimal effective concentration: 10
- molecule: "C#CCOCCn1cnc2c(N)nc3ccccc3c21 [Example 1]"
  measurementUnit: "µM"
  minimal effective concentration: 1.11
- molecule: "CC(C)C(COCc1ccc(Cl)c(Cl)c1)n1cnc2c(N)nc3ccccc3c21 (stereo not shown) [Example 62]"
  measurementUnit: "µM"
  minimal effective concentration: 3.33
- molecule: "CCCCc1nc2c(N)nc3c(c2n1CCOCc1cccc(C#N)c1)CCCC3 [Example 94]"
  measurementUnit: "µM"
  minimal effective concentration: 3.33
- molecule: "N#Cc1cccc(COCCOCn2cnc3c(N)nc4ccccc4c32)c1 [Example 88]"
  measurementUnit: "µM"
  minimal effective concentration: 30
- molecule: "Nc1nc2ccccc2c2c1ncn2CCOCC#Cc1ccccc1 [Example 3]"
  measurementUnit: "µM"
  minimal effective concentration: 3.33
- molecule: "CCCCc1nc2c(N)nc3c(c2n1CCOCc1ccc(C)cc1)CCCC3 [Example 90]"
  measurementUnit: "µM"
  minimal effective concentration: 10
- molecule: "COC(=O)c1ccc(COCCn2cnc3c(N)nc4ccccc4c32)cc1 [Example 41]"
  measurementUnit: "µM"
  minimal effective concentration: 3.33
- molecule: "CC(C)c1ccccc1C#CCOCCn1cnc2c(N)nc3ccccc3c21 [Example 7, Hydrochloride]"
  measurementUnit: "µM"
  minimal effective concentration: 0.37
- molecule: "Cc1nc2c(N)nc3ccccc3c2n1CCOCCCc1ccccc1 [Example 119]"
  measurementUnit: "µM"
  minimal effective concentration: 0.12

###

As shown below, each of these molecules has a reported melting point value.

- molecule: "CCC(COCc1cccc(Cl)c1)n1cnc2c(N)nc3ccccc3c21 (stereo not drawn) [Example 17]"
  melting point: "60 to 62 °C"
- molecule: "Cc1nc2c(N)nc3ccccc3c2n1CCCOCCCc1ccccc1 [Example 148]"
  melting point: "145 to 146.1 °C"
- molecule: "Cc1nc2c(N)nc3ccccc3c2n1CCOCCCc1ccccc1 [Example 119]"
  melting point: "129.7 to 130.7 °C"
- molecule: "CCOCc1nc2c(N)nc3ccccc3c2n1CCOCc1ccccc1 [Example 125]"
  melting point: "144.5 to 146 °C"
- molecule: "CCCCCCCCc1nc2c(N)nc3ccccc3c2n1CCOCC#Cc1ccccc1 [Example 116]"
  melting point: "138 to 138.7 °C"
- molecule: "Cc1nc2c(N)nc3ccccc3c2n1CCCCOCC#Cc1ccccc1 [Example 149]"
  melting point: "109.2 to 110 °C"
- molecule: "CCC(COCc1ccc(C#N)cc1)n1cnc2c(N)nc3ccccc3c21 (stereo not drawn) [Example 141]"
  melting point: "160 to 161 °C"
- molecule: "N#Cc1ccccc1C#CCOCCn1cnc2c(N)nc3ccccc3c21 [Example 2]"
  melting point: "180 to 183 °C"
- molecule: "CC(C)Cc1nc2c(N)nc3ccccc3c2n1CCOc1ccccc1 [Example 130]"
  melting point: "176.6 to 177.8 °C"
